# credit: paper PMC8079415

- target-or-system: full-length human Bcl-2 protein (human, UniProt P10415 1-239)
- Sequence (P10415 other isoform, or with tags, fused parts or gaps): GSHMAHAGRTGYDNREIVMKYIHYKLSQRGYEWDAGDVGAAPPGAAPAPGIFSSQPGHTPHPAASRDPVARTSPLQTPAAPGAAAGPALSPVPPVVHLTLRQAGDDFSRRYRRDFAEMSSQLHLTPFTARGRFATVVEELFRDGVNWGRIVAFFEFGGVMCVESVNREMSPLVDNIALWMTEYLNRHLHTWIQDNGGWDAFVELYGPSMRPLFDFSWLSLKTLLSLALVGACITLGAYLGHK
- procedure-summary: NMR; 5 mM DPC micelles, pH 6.0, 310 K
assay-readout: pKd
Would you please state pKd, meaning minus log10 of the concentration in mol/L, as a bare number?

Item under review: Ac-QPPQDASTKKLSECLRRIGDELDSNMELQRMIADVD-NH2 [36-mer Bax-BH3 peptide from Mus musculus] . Reported pKd?
3.84
